- system: Ret kinase (Homo sapiens, UniProt P07949)
- Construct: purchased Millipore (KinaseProfiler Service)
- Sequence (P07949 29-1114): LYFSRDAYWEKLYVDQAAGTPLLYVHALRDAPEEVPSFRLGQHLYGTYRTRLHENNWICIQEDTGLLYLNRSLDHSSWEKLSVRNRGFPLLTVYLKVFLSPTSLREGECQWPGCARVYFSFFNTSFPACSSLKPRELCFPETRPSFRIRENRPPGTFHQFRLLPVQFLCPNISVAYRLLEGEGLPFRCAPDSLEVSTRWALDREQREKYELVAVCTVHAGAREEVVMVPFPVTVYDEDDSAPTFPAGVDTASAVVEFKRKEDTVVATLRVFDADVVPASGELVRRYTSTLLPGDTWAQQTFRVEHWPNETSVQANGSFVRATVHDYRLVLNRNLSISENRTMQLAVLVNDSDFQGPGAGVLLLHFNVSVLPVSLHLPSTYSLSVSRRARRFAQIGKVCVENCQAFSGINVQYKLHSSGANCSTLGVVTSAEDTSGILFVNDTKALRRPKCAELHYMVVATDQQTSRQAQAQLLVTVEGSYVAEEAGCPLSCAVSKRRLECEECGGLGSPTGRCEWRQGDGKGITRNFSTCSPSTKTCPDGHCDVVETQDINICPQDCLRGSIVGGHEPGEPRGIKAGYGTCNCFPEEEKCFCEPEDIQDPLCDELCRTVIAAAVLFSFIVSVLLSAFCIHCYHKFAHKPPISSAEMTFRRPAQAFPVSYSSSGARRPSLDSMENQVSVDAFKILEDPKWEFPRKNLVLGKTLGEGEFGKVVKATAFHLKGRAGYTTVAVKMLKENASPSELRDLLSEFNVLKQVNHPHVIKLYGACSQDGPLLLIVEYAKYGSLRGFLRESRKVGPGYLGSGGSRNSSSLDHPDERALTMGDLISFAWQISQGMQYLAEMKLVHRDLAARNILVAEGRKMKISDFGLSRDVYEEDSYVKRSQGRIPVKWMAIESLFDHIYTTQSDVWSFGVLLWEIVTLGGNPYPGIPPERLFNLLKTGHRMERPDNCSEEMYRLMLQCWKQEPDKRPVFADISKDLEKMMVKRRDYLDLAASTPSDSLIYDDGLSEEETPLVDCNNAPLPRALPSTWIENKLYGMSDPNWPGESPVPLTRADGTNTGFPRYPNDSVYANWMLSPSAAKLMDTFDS
- experiment: KinaseProfiler kinase inhibition assay, Ret
- Type: biochemical
- experimentalContext: 1 μM compound
parameter: inhibition at 1 µM (%)

Worked cases, answers included:
givenSmiles | system | measurementUnits | inhibition at 1 µM
COc1cc(CCc2cc(Nc3cc(Oc4ccc5[nH]c(C)cc5c4F)ncn3)n[nH]2)cc(OC)c1 | Ret kinase (Homo sapiens, UniProt P07949) | % | 25
Cc1cc2c(F)c(Oc3ncnc(Nc4ccc(N5CCN(C)CC5)cn4)c3F)ccc2[nH]1 | Ret kinase (Homo sapiens, UniProt P07949) | % | -46
CCN1CCN(c2ccc(Nc3cc(Oc4cc(F)c5[nH]c(C)cc5c4F)ncn3)cc2)CC1 | Ret kinase (Homo sapiens, UniProt P07949) | % | 53
Cc1cc2c(F)c(Oc3cc(Nc4ccc(N5CCN(C)CC5)cn4)ncn3)ccc2[nH]1 | Ret kinase (Homo sapiens, UniProt P07949) | % | 79
Cc1cc2c(F)c(Oc3ncnc(Nc4ccc(N5CCN(C)CC5)cc4)c3C#N)ccc2[nH]1 | Ret kinase (Homo sapiens, UniProt P07949) | % | -30

a = CCN1CCN(c2ccc(Nc3ncnc(Oc4ccc5c(cc(C)n5C)c4F)c3F)cc2)CC1
b = Cc1cc2c(F)c(Oc3ncnc(Nc4ccc(N5CCN(C)CC5)cc4)c3Cl)ccc2[nH]1
c = CCN1CCN(c2ccc(Nc3ncnc(Oc4ccc5[nH]c(C)cc5c4F)c3F)cc2)CC1
d = Cc1cc2c(F)c(Oc3cc(Nc4cccc(N5CCN(C)CC5)c4)ncn3)ccc2[nH]1
stdin: Put these in order: smallest inhibition at 1 µM first, largest last. Respond with an ordered listing of the labels, as requested.
stdout: a, b, c, d
(a: -41%, b: -22%, c: -11%, d: 61%)

I = Cc1cc2c(F)c(Oc3ncnc(Nc4ccc(N5CCN(C)CC5)cc4)c3C)ccc2[nH]1
II = Cc1cc2c(F)c(Oc3ncnc(Nc4ccc(N5CCNCC5)cc4)c3C#N)ccc2[nH]1
stdin: Just tell me: smaller inhibition at 1 µM value, I or II ? # respond with the chosen item's label
stdout: I

1 = Cc1cc2c(F)c(Oc3cc(Nc4ccc(N5CCOCC5)cc4)ncn3)ccc2[nH]1
2 = CCN1CCN(c2ccc(Nc3ncnc(Oc4ccc5[nH]c(C)cc5c4F)c3C#N)nc2)CC1
3 = Cc1cc2c(F)c(Oc3cc(Nc4cc(C5CC5)[nH]n4)ncn3)ccc2[nH]1
4 = Cc1cc2c(F)c(Oc3ncnc(Nc4ccc(N5CCN(C)CC5)cc4)c3F)ccc2[nH]1
stdin: Please list these compounds in decreasing order of inhibition at 1 µM. Form entry: labels listed in requested order.
stdout: 3, 1, 4, 2
(3: 79%, 1: 35%, 4: -12%, 2: -48%)

* * *

- System: AN3_CA
- experiment: CellTiterblue viability, 72 hr, AN3_CA
- Format: cell-based
- experimentalContext: Homo sapiens, AN3-CA, AN3_CA cells
parameter: GI50

givenSmiles | system | GI50
Cc1cc2c(F)c(Oc3cc(Nc4ccc(N5CCN(C)CC5)cn4)ncn3)ccc2[nH]1 | AN3_CA | 332 nM
Cc1cc2c(F)c(Oc3ncnc(Nc4ccc(N5CCN(C)CC5)cc4)c3C)ccc2[nH]1 | AN3_CA | > 500 nM
CCN1CCN(c2ccc(Nc3ncnc(Oc4ccc5c(cc(C)n5C)c4F)c3F)cc2)CC1 | AN3_CA | > 500 nM

Next:
stdin: Endpoint output: GI50 of Cc1cc2c(F)c(Oc3cc(Nc4cccc(N5CCOCC5)c4)ncn3)ccc2[nH]1 . Value?
stdout: > 500 nM

* * *

- Test system: Kato III
- experiment: CellTiterblue viability, 72 hr, Kato III
- Type: cell-based
- experimentalContext: Homo sapiens, Kato III cells
parameter: GI50

Here is how some compounds turned out for GI50.
compound | result
Cc1cc2c(F)c(Oc3cc(N4CCN(c5ccc(N)cc5F)CC4)ncn3)ccc2[nH]1 [Example 10] | 142 nM
Cc1cc2c(F)c(Oc3cc(Nc4ccc(N5CCN(C)CC5)c(F)c4)ncn3)ccc2[nH]1 [Example 14] | > 500 nM

stdin: # lookup: GI50 of Cc1cc2c(F)c(Oc3cc(Nc4cccc(N5CCOCC5)c4)ncn3)ccc2[nH]1 [Example 8]
stdout: > 500 nM

stdin: Request the reported GI50 associated with Cc1cc2c(F)c(Oc3cc(Nc4ccc(N5CCOCC5)cc4)ncn3)ccc2[nH]1 [Example 9]
stdout: > 500 nM

stdin: For the compound Cc1cc2c(F)c(Oc3cc(Nc4cccc(N5CCN(C)CC5)c4)ncn3)ccc2[nH]1 [Example 13] , what GI50 is on record?
stdout: 170 nM

* * *

- system: Tie2 (Homo sapiens)
- Construct: purchased Millipore (KinaseProfiler Service)
- Sequence (Q02763 23-1124): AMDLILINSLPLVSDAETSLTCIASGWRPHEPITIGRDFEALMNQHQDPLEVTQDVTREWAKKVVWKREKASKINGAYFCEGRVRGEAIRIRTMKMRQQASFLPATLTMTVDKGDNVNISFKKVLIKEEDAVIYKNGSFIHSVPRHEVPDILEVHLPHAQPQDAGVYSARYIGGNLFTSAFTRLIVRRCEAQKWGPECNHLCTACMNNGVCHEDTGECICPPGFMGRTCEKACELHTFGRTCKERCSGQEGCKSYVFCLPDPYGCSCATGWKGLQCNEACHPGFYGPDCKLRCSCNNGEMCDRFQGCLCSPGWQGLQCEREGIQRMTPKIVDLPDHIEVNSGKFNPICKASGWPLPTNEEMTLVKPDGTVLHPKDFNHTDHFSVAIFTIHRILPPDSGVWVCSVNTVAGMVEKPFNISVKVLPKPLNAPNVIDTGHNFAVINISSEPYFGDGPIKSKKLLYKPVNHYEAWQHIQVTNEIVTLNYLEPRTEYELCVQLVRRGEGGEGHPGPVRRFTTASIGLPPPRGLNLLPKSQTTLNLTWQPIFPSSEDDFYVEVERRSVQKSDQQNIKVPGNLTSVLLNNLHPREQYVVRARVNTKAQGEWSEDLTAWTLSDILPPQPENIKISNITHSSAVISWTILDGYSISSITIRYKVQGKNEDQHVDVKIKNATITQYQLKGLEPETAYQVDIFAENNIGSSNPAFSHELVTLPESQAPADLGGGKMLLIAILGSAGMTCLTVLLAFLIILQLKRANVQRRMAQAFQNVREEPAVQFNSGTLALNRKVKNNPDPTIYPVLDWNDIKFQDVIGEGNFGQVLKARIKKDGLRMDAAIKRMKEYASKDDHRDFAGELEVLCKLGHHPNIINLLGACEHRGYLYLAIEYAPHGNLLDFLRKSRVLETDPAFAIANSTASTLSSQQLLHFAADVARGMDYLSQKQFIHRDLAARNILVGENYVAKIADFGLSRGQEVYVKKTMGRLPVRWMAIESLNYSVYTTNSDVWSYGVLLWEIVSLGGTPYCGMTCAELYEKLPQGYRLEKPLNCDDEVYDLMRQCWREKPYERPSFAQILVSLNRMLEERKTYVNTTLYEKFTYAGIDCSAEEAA
- experiment: KinaseProfiler kinase inhibition assay, Tie2
- Assay type: biochemical
- experimentalContext: 1 μM compound
parameter: inhibition at 1 µM (%)

Completed entries (count: 5):
compound | quantitativeResult
CC(=O)N1CCN(c2ccc(Nc3ncnc(Oc4ccc5[nH]c(C)cc5c4F)c3F)cc2)CC1 [Example 26] | -11
CCN1CCN(c2ccc(Nc3ncnc(Oc4cc(F)c5[nH]c(C)cc5c4F)c3C#N)cc2)CC1 [Compound 60] | 24
COc1c(Nc2ccc(N3CCN(C)CC3)cc2)ncnc1Oc1ccc2[nH]c(C)cc2c1F [Compound 43] | 21
CCN1CCN(c2ccc(Nc3cc(Oc4ccc5[nH]c(C)cc5c4F)ncn3)cc2)CC1 [Example 3] | 61
Cc1cc2c(F)c(Oc3cc(Nc4ccc(N5CCN(C)CC5)cc4)ncn3)ccc2[nH]1 [Example 2] | 58

P = Cc1cc2c(F)c(Oc3cc(Nc4ccc(N5CCNCC5)cc4)ncn3)ccc2[nH]1 [Example 11]
Q = CC(=O)N1CCN(c2ccc(Nc3cc(Oc4cc(F)c5[nH]c(C)cc5c4F)ncn3)cc2)CC1 [Compound 50]
R = COc1cc(CCc2cc(Nc3cc(Oc4ccc5[nH]c(C)cc5c4F)ncn3)n[nH]2)cc(OC)c1 [Example 22]
stdin: Ordering criterion: inhibition at 1 µM; begin with the maximum. Hello, could you send the labels back in the order asked? Thank you.
stdout: P, Q, R
(P: 92%, Q: 48%, R: 18%)

a = CCOC(=O)c1cc(Nc2cc(Oc3ccc4[nH]c(C)cc4c3F)ncn2)n[nH]1 [Example 19]
b = Cc1cc2c(F)c(Oc3cc(N4CCN(c5ccc(N)cc5F)CC4)ncn3)ccc2[nH]1 [Example 10]
stdin: When their inhibition at 1 µM values are compared, which is larger, a or b ? Your answer should be the label attached to the chosen record.
stdout: a

a = COc1c(Nc2ccc(N3CCN(C)CC3)cn2)ncnc1Oc1ccc2[nH]c(C)cc2c1F [Compound 44]
b = CCN1CCN(c2ccc(Nc3cc(Oc4cc(F)c5[nH]c(C)cc5c4F)ncn3)cc2)CC1 [Compound 49]
c = Cc1cc2c(F)c(Oc3cc(Nc4ccccn4)ncn3)ccc2[nH]1 [Example 18]
d = Cc1cc2c(F)c(Oc3cc(Nc4cc(-c5ccccc5)[nH]n4)ncn3)ccc2[nH]1 [Example 4]
stdin: Rank entries according to their inhibition at 1 µM, from the largest number down. # respond with the labels, arranged in the requested order
stdout: b, c, d, a
(b: 69%, c: 48%, d: 30%, a: 11%)

P = Cc1cc2c(F)c(Oc3cc(Nc4cc(-c5ccco5)[nH]n4)ncn3)ccc2[nH]1 [Example 20]
Q = Cc1cc2c(F)c(Oc3cc(Nc4ccc(N5CCN(C)CC5)cn4)ncn3)ccc2[nH]1 [Example 15]
stdin: // pick min by inhibition at 1 µM: P , Q Choose, then provide that item's label.
stdout: P
(P: 47%, Q: 82%)

* * *

- system: Abl kinase (Homo sapiens, UniProt P00519)
- Construct: purchased Millipore (KinaseProfiler Service)
- Sequence (P00519 whole entry): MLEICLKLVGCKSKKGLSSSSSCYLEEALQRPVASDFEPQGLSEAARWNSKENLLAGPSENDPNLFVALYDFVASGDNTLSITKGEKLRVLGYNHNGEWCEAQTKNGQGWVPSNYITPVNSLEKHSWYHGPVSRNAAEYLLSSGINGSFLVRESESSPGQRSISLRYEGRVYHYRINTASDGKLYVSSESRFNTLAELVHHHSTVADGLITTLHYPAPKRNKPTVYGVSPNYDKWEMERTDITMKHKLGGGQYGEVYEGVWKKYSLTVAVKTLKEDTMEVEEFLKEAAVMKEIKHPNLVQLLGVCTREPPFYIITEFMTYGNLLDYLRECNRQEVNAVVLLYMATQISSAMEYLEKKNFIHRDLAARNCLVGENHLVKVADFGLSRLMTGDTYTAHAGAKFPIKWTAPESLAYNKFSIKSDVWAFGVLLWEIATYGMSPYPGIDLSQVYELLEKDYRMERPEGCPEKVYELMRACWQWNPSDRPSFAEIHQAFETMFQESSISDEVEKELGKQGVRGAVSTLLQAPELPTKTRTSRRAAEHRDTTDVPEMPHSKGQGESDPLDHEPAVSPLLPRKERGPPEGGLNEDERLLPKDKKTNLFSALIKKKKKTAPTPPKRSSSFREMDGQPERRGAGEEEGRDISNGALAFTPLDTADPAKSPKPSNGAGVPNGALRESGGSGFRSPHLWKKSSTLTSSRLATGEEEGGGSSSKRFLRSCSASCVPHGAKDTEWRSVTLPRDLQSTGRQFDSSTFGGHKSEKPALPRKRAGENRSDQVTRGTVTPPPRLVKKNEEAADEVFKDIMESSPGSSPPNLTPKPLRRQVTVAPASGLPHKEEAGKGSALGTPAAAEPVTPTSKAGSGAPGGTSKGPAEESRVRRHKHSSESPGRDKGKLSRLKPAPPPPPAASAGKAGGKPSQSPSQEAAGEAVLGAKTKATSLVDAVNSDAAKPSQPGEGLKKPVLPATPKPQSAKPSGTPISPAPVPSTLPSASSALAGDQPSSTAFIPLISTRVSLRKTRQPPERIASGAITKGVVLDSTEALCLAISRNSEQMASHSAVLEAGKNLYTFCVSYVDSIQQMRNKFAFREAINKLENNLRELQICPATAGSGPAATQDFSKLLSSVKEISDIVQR
- experiment: KinaseProfiler kinase inhibition assay, Abl
- Format: biochemical
- experimentalContext: 1 μM compound
parameter: inhibition at 1 µM (%)

compound | measurementUnits | quantitativeResult
Cc1cc2c(F)c(Oc3ncnc(Nc4ccc(N5CCNCC5)cc4)c3F)ccc2[nH]1 [Example 28] | % | 12

a = Cc1cc2c(F)c(Oc3cc(Nc4cccc(N5CCOCC5)c4)ncn3)ccc2[nH]1 [Example 8]
b = Cc1cc2c(F)c(Oc3cc(Nc4ccc(N5CCN(C)CC5)c(F)c4)ncn3)ccc2[nH]1 [Example 14]
c = COc1cc(CCc2cc(Nc3cc(Oc4ccc5[nH]c(C)cc5c4F)ncn3)n[nH]2)cc(OC)c1 [Example 22]
stdin: Rank the 3 compounds: largest inhibition at 1 µM first, smallest last. Respond with an ordered listing of the labels, as requested.
stdout: b, c, a

* * *

- system: c-Src kinase (Homo sapiens)
- Construct: purchased Millipore (KinaseProfiler Service)
- Sequence (P12931 whole entry): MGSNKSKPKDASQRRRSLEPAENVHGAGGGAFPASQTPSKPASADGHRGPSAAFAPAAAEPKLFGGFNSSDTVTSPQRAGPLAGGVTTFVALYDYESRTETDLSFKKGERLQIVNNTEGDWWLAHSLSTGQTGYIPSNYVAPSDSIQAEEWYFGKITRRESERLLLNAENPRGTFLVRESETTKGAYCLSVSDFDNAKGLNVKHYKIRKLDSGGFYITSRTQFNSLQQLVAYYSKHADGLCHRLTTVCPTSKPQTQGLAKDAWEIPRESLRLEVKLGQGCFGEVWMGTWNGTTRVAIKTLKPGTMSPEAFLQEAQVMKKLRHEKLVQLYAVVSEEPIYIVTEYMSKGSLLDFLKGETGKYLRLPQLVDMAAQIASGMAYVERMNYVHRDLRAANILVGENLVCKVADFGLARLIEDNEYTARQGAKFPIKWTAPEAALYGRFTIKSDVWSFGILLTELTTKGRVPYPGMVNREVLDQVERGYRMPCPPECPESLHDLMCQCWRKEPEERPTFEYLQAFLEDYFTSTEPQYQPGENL
- experiment: KinaseProfiler kinase inhibition assay, c-Src
- Assay type: biochemical
- experimentalContext: 1 μM compound; read-out: % Inhibition @1 μM cSrc
parameter: inhibition at 1 µM (%)

Recorded inhibition at 1 µM, per entry:
givenSmiles | parameter | quantitativeResult
Cc1cc2c(F)c(Oc3cc(Nc4cccc(N5CCOCC5)c4)ncn3)ccc2[nH]1 | inhibition at 1 µM | 15
Cc1cc2c(F)c(Oc3cc(Nc4ccc(N5CCN(C)CC5)cc4)ncn3)ccc2[nH]1 | inhibition at 1 µM | 47
CCN1CCN(c2ccc(Nc3ncnc(Oc4ccc5[nH]c(C)cc5c4F)c3C#N)nc2)CC1 | inhibition at 1 µM | 10
Cc1cc2c(F)c(Oc3cc(Nc4cc(-c5ccccc5)[nH]n4)ncn3)ccc2[nH]1 | inhibition at 1 µM | 36
Cc1cc2c(F)c(Oc3cc(N4CCN(c5ccc(N)cc5F)CC4)ncn3)ccc2[nH]1 | inhibition at 1 µM | 8
Cc1cc2c(F)c(Oc3ncnc(Nc4ccc(N5CCNCC5)cc4)c3C#N)ccc2[nH]1 | inhibition at 1 µM | 12

a = CCN1CCN(c2ccc(Nc3ncnc(Oc4ccc5[nH]c(C)cc5c4F)c3F)cc2)CC1
b = Cc1cc2c(F)c(Oc3cc(Nc4ccc(N5CCN(C)CC5)c(F)c4)ncn3)ccc2[nH]1
c = CC(=O)N1CCN(c2ccc(Nc3cc(Oc4cc(F)c5[nH]c(C)cc5c4F)ncn3)cc2)CC1
d = Cc1cc2c(F)c(Oc3ncnc(Nc4cc(C5CC5)n[nH]4)c3F)ccc2[nH]1
stdin: Arrange these 4 compounds in increasing order of inhibition at 1 µM. Respond with an ordered listing of the labels, as requested.
stdout: d, a, b, c
(d: -7%, a: 11%, b: 35%, c: 58%)
